protocol summary: Dissolution rate of tablets of the solid forms in FaSSIF v2 (small-scale dissolution assay, UV quantification, Noyes-Whitney fit)
Type: physicochemical
cond: FaSSIF v2 (pH 6.5), 25° C., 120 minutes, 3 mm tablet
quantity: dissolution rate (nmol/min)
Numbers only, in nmol/min.

[
  {
    "compound": "COc1cc(/C=C/c2ccc(O)cc2)cc(OC)c1.ClCCl.Cn1c(=O)c2[nH]cnc2n(C)c1=O",
    "dissolution rate (nmol/min)": 33.5
  },
  {
    "compound": "COc1cc(/C=C/c2ccc(O)cc2)cc(OC)c1 [Pterostilbene (Form VI), Form VI of pterostilbene]",
    "dissolution rate (nmol/min)": 7.4
  },
  {
    "compound": "COc1cc(/C=C/c2ccc(O)cc2)cc(OC)c1.COc1cc(/C=C/c2ccc(O)cc2)cc(OC)c1.O=C(O)c1ccccn1",
    "dissolution rate (nmol/min)": 351.3
  }
]

Shifting focus to the compound that follows.
Looking up COc1cc(C=Cc2ccc(O)cc2)cc(OC)c1.COc1cc(C=Cc2ccc(O)cc2)cc(OC)c1.NCCN.O.O , I found its dissolution rate recorded as 230.4
